Where do the numbers come from? From ChEMBL document CHEMBL1142293.

Below is a list of entries, each paired with its recorded pKi value.
target: UniProtKB P08473; assay: Inhibition of human recombinant NEP by fluorescence assay; conditions: read-out: Ki app
Sequence (P08473 whole entry): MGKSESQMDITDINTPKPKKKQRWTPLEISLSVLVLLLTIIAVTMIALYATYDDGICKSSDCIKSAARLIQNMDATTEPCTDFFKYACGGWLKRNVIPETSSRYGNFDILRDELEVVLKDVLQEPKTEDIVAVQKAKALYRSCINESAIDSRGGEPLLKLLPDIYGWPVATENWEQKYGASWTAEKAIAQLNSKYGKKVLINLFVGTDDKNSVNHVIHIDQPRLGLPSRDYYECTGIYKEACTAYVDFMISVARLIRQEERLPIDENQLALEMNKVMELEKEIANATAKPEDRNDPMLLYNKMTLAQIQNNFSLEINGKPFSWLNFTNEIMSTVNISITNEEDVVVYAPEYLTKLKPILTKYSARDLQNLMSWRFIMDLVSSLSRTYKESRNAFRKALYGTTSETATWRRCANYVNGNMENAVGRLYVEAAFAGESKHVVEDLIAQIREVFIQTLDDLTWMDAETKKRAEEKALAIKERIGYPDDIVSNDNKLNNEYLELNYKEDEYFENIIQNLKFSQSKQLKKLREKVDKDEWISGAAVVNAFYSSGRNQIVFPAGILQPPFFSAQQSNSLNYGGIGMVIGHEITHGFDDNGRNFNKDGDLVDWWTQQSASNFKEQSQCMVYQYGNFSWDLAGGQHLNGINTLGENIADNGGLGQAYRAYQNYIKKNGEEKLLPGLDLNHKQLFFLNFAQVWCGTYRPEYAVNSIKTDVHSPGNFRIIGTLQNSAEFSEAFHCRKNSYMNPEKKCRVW
pKi: −log10 of the molar value.
RECORDED_METRIC: pKi

C[C@H](S)C(=O)N[C@@H](Cc1ccc(-c2ccccc2)cc1)C(=O)O    7.64
CC(C)(C)C[C@H](S)C(=O)N[C@@H](Cc1ccc(-c2ccccc2)cc1)C(=O)O    8.59
O=C(O)[C@H](Cc1ccc(-c2ccccc2)cc1)NC(=O)[C@@H](S)CCc1ccccc1    8.59
O=C(O)[C@H](Cc1ccc(-c2ccccc2)cc1)NC(=O)[C@@H](S)C1CCCC1    7.42
O=C(O)[C@H](Cc1ccc(-c2ccccc2)cc1)NC(=O)[C@@H](S)CC1CCCCC1    6.89
